Target: Inadl_8, Q8NI35
Sequence (Q8NI35 1425-1530): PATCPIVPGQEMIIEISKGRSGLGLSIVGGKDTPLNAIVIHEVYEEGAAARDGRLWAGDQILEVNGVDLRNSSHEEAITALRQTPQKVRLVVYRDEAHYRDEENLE
Assay: holdup assay
Design: key: below the threshold = too weak to quantify, mostly under pKd 3.1 to 4
Settings: plain residues with an end cap or a label only (N-terminal biotin on a linker: ado-ado)
measurementName: pKd

                          binder       recordedresult
 0  WAKEKQHTRL [SLC17A1, Q14916]  below the threshold
 1     HDDYFYHDEL [RCN2, Q14257]  below the threshold
 2      SQPLLVHDDV [KIT, P10721]                 4.94
 3    GSQSQVETEA [FKBP4, Q02790]  below the threshold
 4     SGDGKTSVWI [GJC1, P36383]  below the threshold
 5   DYSNLRETDI [ADRA1D, P25100]                 3.56
 6     IGHEDLETAV [DGKI, O75912]  below the threshold
 7  GTMFLRETSL [GUCY1A2, P33402]                  3.9
 8    TFSRRPKTRV [CD226, Q15762]                  4.6
 9    DAAHHDESNC [FMNL3, Q8IVF7]  below the threshold
10    RGKNRRQSIF [CDK18, Q07002]  below the threshold
11    YAEKRMLTEV [KCNA6, P17658]  below the threshold
12    KEKASTETEC [TRPM1, Q7Z4N2]  below the threshold
13   TKEIPNCTSV [SORCS3, Q9UPU3]                 4.28
